tested on: BT-549; assay: Antiproliferative activity against human BT-549 cells assessed as cell growth inhibition at 10 uM incubated for 48 hrs by sulforhodamine B assay relative to control; format: functional
Criterion: inhibition at 10 µM meeting or surpassing 30%. Met: met. Not met: not met.

Examples with answers:
Compound string	Target or test system	Classification
O=Cc1ccc(-c2cn3ccnc3c(-c3ccc4ncn(Cc5ccccc5)c4c3)n2)cc1	BT-549	met
Fc1ccc(-c2cn3ccnc3c(-c3ccc4ncn(C5CCCCC5)c4c3)n2)cc1	BT-549	not met
Clc1ccc(-c2cn3ccnc3c(-c3ccc4ncn(C5CCCCC5)c4c3)n2)cc1	BT-549	not met
c1cn2cc(-c3ccc4c(c3)ncn4C3CCCCC3)nc(-c3ccc4ncn(C5CCCCC5)c4c3)c2n1	BT-549	not met

Moving on to another compound below.
Data request: Is reported inhibition at 10 µM greater than or equal to 30% here: `c1csc(-c2cn3ccnc3c(-c3ccc4ncn(C5CCCCC5)c4c3)n2)c1`
Data returned: not met

* * *

system: HOP-62; assay: Antiproliferative activity against human HOP-62 cells assessed as cell growth inhibition at 10 uM incubated for 48 hrs by sulforhodamine B assay relative to control; format: functional
Reported endpoint: inhibition at 10 µM (%)
The answer is to be given in %; state only the numeric part.

Data request: Give a short answer stating reported inhibition at 10 µM for `c1cn2cc(-c3ccc4ncn(C5CCCCC5)c4c3)nc(-c3ccc4ncn(C5CCCCC5)c4c3)c2n1` .
Data returned: 42.6

Data request: Note inhibition at 10 µM for the compound shown: `Brc1cn2ccnc2c(-c2ccc3ncn(C4CCCCC4)c3c2)n1`
Data returned: 21.7

Data request: Report measured inhibition at 10 µM; entry is `c1ccc(Cn2cnc3ccc(-c4nc(-c5cccc6ccccc56)cn5ccnc45)cc32)cc1`
Data returned: 14

Data request: Using known records, supply inhibition at 10 µM for `CCc1ccc(-c2cn3ccnc3c(-c3ccc4ncn(Cc5ccccc5)c4c3)n2)cc1`
Data returned: 17.9

Data request: Give a short answer stating reported inhibition at 10 µM for `c1cn2cc(-c3ccc4c(c3)ncn4C3CCCCC3)nc(-c3ccc4ncn(C5CCCCC5)c4c3)c2n1` .
Data returned: 16.8

Data request: Hello, please tell me recorded inhibition at 10 µM for this one: `O=Cc1ccc(-c2cn3ccnc3c(-c3ccc4ncn(Cc5ccccc5)c4c3)n2)cc1`
Data returned: 23.8

* * *

tested on: BT-549; assay: Antiproliferative activity against human BT-549 cells assessed as cell growth inhibition at 10 uM incubated for 48 hrs by sulforhodamine B assay relative to control; type: functional
Recorded inhibition at 10 µM by entry
The figure you give is taken to be in %; do not add the unit.

See these solved cases before continuing.
Compound string	inhibition at 10 µM, %
COc1ccc(-c2cn3ccnc3c(-c3ccc4ncn(C5CCCCC5)c4c3)n2)cc1	68.9
Fc1ccccc1-c1cn2ccnc2c(-c2ccc3ncn(C4CCCCC4)c3c2)n1	4.08
c1ccc(Cn2cnc3ccc(-c4nc(-c5ccc6c(c5)ncn6C5CCCCC5)cn5ccnc45)cc32)cc1	-44.7
c1cn2cc(-c3ccc4ncn(C5CCCCC5)c4c3)nc(-c3ccc4ncn(C5CCCCC5)c4c3)c2n1	38.3

Data request: Provide only the value of recorded inhibition at 10 µM for `c1ccc(-c2cn3ccnc3c(-c3ccc4ncn(C5CCCCC5)c4c3)n2)cc1`
Data returned: 57.1

* * *

system: M14; assay: Antiproliferative activity against human M14 cells assessed as cell growth inhibition at 10 uM incubated for 48 hrs by sulforhodamine B assay relative to control; format: functional
Reported endpoint: inhibition at 10 µM (%)
Numeric answer only, unit % assumed.

Compound string	Obs value
c1ccc(Cn2cnc3ccc(-c4nc(-c5cccc6ccccc56)cn5ccnc45)cc32)cc1	4.41
c1cn2cc(-c3ccc4ncn(C5CCCCC5)c4c3)nc(-c3ccc4ncn(C5CCCCC5)c4c3)c2n1	40.6
O=Cc1ccc(-c2cn3ccnc3c(-c3ccc4ncn(Cc5ccccc5)c4c3)n2)cc1	23
CCc1ccc(-c2cn3ccnc3c(-c3ccc4ncn(Cc5ccccc5)c4c3)n2)cc1	36.4
Fc1ccccc1-c1cn2ccnc2c(-c2ccc3ncn(C4CCCCC4)c3c2)n1	2.92
c1cn2cc(-c3ccc4c(c3)ncn4C3CCCCC3)nc(-c3ccc4ncn(C5CCCCC5)c4c3)c2n1	6.98
Clc1ccc(-c2cn3ccnc3c(-c3ccc4ncn(C5CCCCC5)c4c3)n2)cc1	10
Fc1ccc(-c2cn3ccnc3c(-c3ccc4ncn(C5CCCCC5)c4c3)n2)cc1	2.98
COc1ccccc1-c1cn2ccnc2c(-c2ccc3ncn(C4CCCCC4)c3c2)n1	1.12
O=Cc1ccc(-c2cn3ccnc3c(-c3ccc4ncn(C5CCCCC5)c4c3)n2)cc1	23

Data request: Give a short answer stating reported inhibition at 10 µM for `CC(=O)c1ccc(-c2cn3ccnc3c(-c3ccc4ncn(C5CCCCC5)c4c3)n2)cc1` .
Data returned: 3.43

Data request: Determine from records and report inhibition at 10 µM for `c1ccc(Cn2cnc3ccc(-c4nc(-c5ccc6c(c5)ncn6C5CCCCC5)cn5ccnc45)cc32)cc1`
Data returned: -4.44

Data request: Respond only with inhibition at 10 µM recorded for `COc1ccc(-c2cn3ccnc3c(-c3ccc4ncn(C5CCCCC5)c4c3)n2)cc1`
Data returned: 89.2

Data request: Identify measured inhibition at 10 µM corresponding to `c1ccc(-c2cn3ccnc3c(-c3ccc4ncn(C5CCCCC5)c4c3)n2)cc1`
Data returned: 38.2

Data request: Tell us which inhibition at 10 µM value is on record for `Brc1ccc(-c2cn3ccnc3c(-c3ccc4ncn(C5CCCCC5)c4c3)n2)cc1`
Data returned: 26.9

* * *

tested on: KM12; experiment: Antiproliferative activity against human KM12 cells assessed as cell growth inhibition at 10 uM incubated for 48 hrs by sulforhodamine B assay relative to control; type: functional
Reported endpoint: inhibition at 10 µM (%)
All answers are understood in %, so give the number only.

Compound string	Readout units	Obs value
c1ccc(Cn2cnc3ccc(-c4nc(-c5ccc6c(c5)ncn6C5CCCCC5)cn5ccnc45)cc32)cc1	%	-39.4
c1cn2cc(-c3ccc4c(c3)ncn4C3CCCCC3)nc(-c3ccc4ncn(C5CCCCC5)c4c3)c2n1	%	30.6
Cc1cccc(-c2cn3ccnc3c(-c3ccc4ncn(Cc5ccccc5)c4c3)n2)c1	%	22.1
O=Cc1ccc(-c2cn3ccnc3c(-c3ccc4ncn(C5CCCCC5)c4c3)n2)cc1	%	3.69
c1cn2cc(-c3ccsc3)nc(-c3ccc4ncn(C5CCCCC5)c4c3)c2n1	%	15.4
c1cn2cc(-c3ccc4ncn(C5CCCCC5)c4c3)nc(-c3ccc4ncn(C5CCCCC5)c4c3)c2n1	%	63.5

Next molecule, please.
Data request: Answer with the recorded inhibition at 10 µM of `COc1ccc(-c2cn3ccnc3c(-c3ccc4ncn(C5CCCCC5)c4c3)n2)cc1` only.
Data returned: 83.2

* * *

Recorded inhibition at 10 µM, one value per entry.
system: SK-MEL-5; assay: Antiproliferative activity against human SK-MEL-5 cells assessed as cell growth inhibition at 10 uM incubated for 48 hrs by sulforhodamine B assay relative to control; format: functional

Compound string	inhibition at 10 µM
COc1ccc(-c2cn3ccnc3c(-c3ccc4ncn(C5CCCCC5)c4c3)n2)cc1	92.3%

Data request: Supply measured inhibition at 10 µM of `FC(F)(F)c1cccc(-c2cn3ccnc3c(-c3ccc4ncn(C5CCCCC5)c4c3)n2)c1` in your reply.
Data returned: 4.32%

Data request: Return reported inhibition at 10 µM. Input compound: `COc1ccccc1-c1cn2ccnc2c(-c2ccc3ncn(C4CCCCC4)c3c2)n1`
Data returned: 8.94%

Data request: // fetch inhibition at 10 µM given entry `c1cn2cc(-c3ccsc3)nc(-c3ccc4ncn(C5CCCCC5)c4c3)c2n1`
Data returned: 25%

Data request: Please look at this compound and report its inhibition at 10 µM: `O=Cc1ccc(-c2cn3ccnc3c(-c3ccc4ncn(Cc5ccccc5)c4c3)n2)cc1`
Data returned: 56.5%

Data request: Supply measured inhibition at 10 µM of `c1cn2cc(-c3ccc4c(c3)ncn4C3CCCCC3)nc(-c3ccc4ncn(C5CCCCC5)c4c3)c2n1` in your reply.
Data returned: 36.8%

* * *

system: NCI-H460; test: Antiproliferative activity against human NCI-H460 cells assessed as cell growth inhibition at 10 uM incubated for 48 hrs by sulforhodamine B assay relative to control; type: functional
Reported endpoint: inhibition at 10 µM (%)
Number only, in %; omit the unit.

Data request: Give reported inhibition at 10 µM value for `Fc1ccccc1-c1cn2ccnc2c(-c2ccc3ncn(C4CCCCC4)c3c2)n1`
Data returned: 8.1

* * *

system: HOP-62; experiment: Antiproliferative activity against human HOP-62 cells assessed as cell growth inhibition at 10 uM incubated for 48 hrs by sulforhodamine B assay relative to control; format: functional
Catalogue of inhibition at 10 µM readings, one per entry.
Record the value in %, omitting the unit from your answer.

Compound string	Target or test system	Readout units	inhibition at 10 µM
c1ccc(Cn2cnc3ccc(-c4nc(-c5ccc6c(c5)ncn6C5CCCCC5)cn5ccnc45)cc32)cc1	HOP-62	%	-9.39
Cc1cccc(-c2cn3ccnc3c(-c3ccc4ncn(Cc5ccccc5)c4c3)n2)c1	HOP-62	%	9.68
c1ccc2c(-c3cn4ccnc4c(-c4ccc5ncn(C6CCCCC6)c5c4)n3)cccc2c1	HOP-62	%	19.6
O=Cc1ccc(-c2cn3ccnc3c(-c3ccc4ncn(C5CCCCC5)c4c3)n2)cc1	HOP-62	%	23.8

Now look at this one.
Data request: Report measured inhibition at 10 µM; entry is `CC(=O)c1ccc(-c2cn3ccnc3c(-c3ccc4ncn(C5CCCCC5)c4c3)n2)cc1`
Data returned: 7.41
